tested on: NCI-H460; assay: NCI tumour cell line growth inhibition, 48 h
The source made the active and inactive calls. No stated cut-off is given here; in the data, active = GI50 up to about 1.1 µM and inactive = higher.
Please reply with one of these outcomes: active, inactive

Below are worked cases with known answers.
compound	class
CCCCC(=O)N/S(=N/C(=O)c1ccccc1)C(Cl)(Cl)Cl (centres undefined)	inactive
N/C(=N\O)N/N=C/c1ccc(C(F)(F)F)cc1	inactive

Req: Recorded call for CCOC(=O)C(NC(=O)CC)(Nc1ccc(S(=O)(=O)Nc2ncccn2)cc1)C(F)(F)F (centres undefined) ?
Resp: inactive

Req: Hi team, can someone confirm the assay call for C=C(/C=C/C=C(\C)CCC=C(C)C)[C@@H]1CC[C@]2([C@H](CCCO)/C(=C(/C)C=O)CC[C@]2(C)O)[C@@H]1O ?
Resp: inactive

Req: Given NC(=O)C12CC3CC(CC(F)(C3)C1)C2 , state the outcome it received in this test.
Resp: inactive

Req: Would you mind telling me which call this test gave O=[N+]([O-])c1cn[n+]([O-])c2ccccc12 ?
Resp: inactive

Req: Entry CCOC(=O)c1ccc(N[C@@H]2c3cc4c(cc3C(C3=CC(=O)C(=O)C(OC)=C3)[C@H]3C(=O)OCC32)OCO4)cc1 (some centres undefined) : call = ?
Resp: active

Req: Kindly provide the recorded test outcome for the following compound: COc1ccc(CCNC(=O)Cc2ccccc2CO)cc1OC
Resp: inactive

Req: # fetch the recorded call for N#Cc1c(N)n(-c2cccc(C(=O)O)c2)c(=O)c2cc([N+](=O)[O-])ccc12 here
Resp: inactive

Req: Can you look up the reported call for CCOC(=O)C1=C(C)N(Cc2ccccc2)C2(O)C=CC(=O)C3C(=O)N(c4ccccc4)C(=O)C132 (centres undefined) for me?
Resp: inactive
